Target: Beta-secretase 1 (Homo sapiens, UniProt P56817)
Sequence (P56817 whole entry): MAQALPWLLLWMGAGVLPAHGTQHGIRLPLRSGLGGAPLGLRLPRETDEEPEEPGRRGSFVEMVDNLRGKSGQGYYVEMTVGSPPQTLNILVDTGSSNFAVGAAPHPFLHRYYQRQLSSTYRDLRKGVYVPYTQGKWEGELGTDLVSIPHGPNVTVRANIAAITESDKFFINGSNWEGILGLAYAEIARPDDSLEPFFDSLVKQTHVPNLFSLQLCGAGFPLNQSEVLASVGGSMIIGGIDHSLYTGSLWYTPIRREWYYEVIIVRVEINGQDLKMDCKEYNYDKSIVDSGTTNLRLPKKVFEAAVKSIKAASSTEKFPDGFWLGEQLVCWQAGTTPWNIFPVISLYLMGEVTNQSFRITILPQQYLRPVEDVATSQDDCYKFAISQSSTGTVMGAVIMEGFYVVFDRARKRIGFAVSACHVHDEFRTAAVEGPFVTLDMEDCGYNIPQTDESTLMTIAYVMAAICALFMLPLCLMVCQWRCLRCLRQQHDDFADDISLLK
Test: Inhibition of recombinant human BACE1 using fluorogenic polypeptide Mca-SEVNLDAEFRK(Dpn)RRNH2 as substrate at 10 uM incubated for 60 mins by FRET assay relative to control
QUANTITY_KIND: inhibition (%)
Please give a number only; it is taken to be in %.

QUERY: Reported inhibition, compound COc1ccc(CNC2CCN(CCCOc3cc(=O)oc4cc(-c5cccnc5)ccc34)CC2)cc1 : ____
RESULT: 82

QUERY: Reported inhibition, compound O=c1cc(OCCCN2CCC(NCc3ccccc3)CC2)c2ccc(-c3cccnc3)cc2o1 : ____
RESULT: 51.4

QUERY: Reported inhibition, compound O=c1cc(OCCCN2CCC(CNCc3ccccc3F)CC2)c2ccc(-c3cccnc3)cc2o1 : ____
RESULT: 67.2

QUERY: Reported inhibition, compound O=c1cc(OCCCN2CCC(NCc3cccc([N+](=O)[O-])c3)CC2)c2ccc(-c3cccnc3)cc2o1 : ____
RESULT: 46.1

QUERY: Reported inhibition, compound CN(Cc1ccccc1)C1CCN(CCCOc2cc(=O)oc3cc(-c4ccc(F)nc4)ccc23)CC1 : ____
RESULT: 61.3

QUERY: Reported inhibition, compound O=C(Nc1cc(-c2ccc3c(OCCCN4CCC(NCc5ccccc5)CC4)cc(=O)oc3c2)ccn1)C1CC1 : ____
RESULT: 34.7

QUERY: Reported inhibition, compound CN(Cc1ccccc1)C1CCN(CCCOc2cc(=O)oc3cc(-c4ccc(F)cc4)ccc23)CC1 : ____
RESULT: 70.9
